These measurements were taken from paper doi:10.64898/2025.12.30.696991.

- System: E. coli (TOP10)
- experiment.description: Antibiotic disc inhibition zone on Mueller-Hinton agar
- Assay type: cell-based, Escherichia coli
- study.conditions: experiment performed twice
Record form. Attribute: Disc inhibition zone (diameter). Fill in for each entry.
// unit must come after the numeric part

[H]/N=C(/N)N[C@H]1[C@H](O)[C@@H](O)[C@H](O[C@@H]2O[C@@H](C)[C@](O)(C=O)[C@H]2O[C@@H]2O[C@@H](CO)[C@H](O)[C@@H](O)[C@@H]2NC)[C@@H](N/C(N)=N\[H])[C@@H]1O ... 0 mm
CO/N=C(\C(=O)N[C@@H]1C(=O)N2C(C(=O)O)=C(CSc3nc(=O)c(O)nn3C)CS[C@H]12)c1csc(N)n1 ... 30 mm

IN: Query (compound): `CC1(C)S[C@@H]2[C@H](NC(=O)[C@H](N)c3ccccc3)C(=O)N2[C@H]1C(=O)O` ; field requested: Disc inhibition zone (diameter)
OUT: 17 mm
